- Test system: human iNOS (Homo sapiens)
- Protocol notes: Inhibition of purified human iNOS ([14C]-L-arginine to citrulline conversion)
- Assay type: biochemical
- Parameters: made in house
- Experimental conditions: footnote: inhibition strongly time dependant on iNOS; read-out: Kd on iNOS, time dependent inhibition
Measured metric: pKd
Numbers only, as −log10 of the molar value.

Query: State recorded pKd with human iNOS (Homo sapiens), entry CC(=N)NCCS(=O)(=O)CC(N)C(=O)O (stereo not shown) [Example 7] , no comment.
Result: 7.00

###

For each of the compounds below, state its Selectivity for iNOS.
- Test system: iNOS in rat aortic rings (Rattus norvegicus)
- Construct: During this time a progressive loss of tone occurred because of iNOS induction; from tissue; host or cells: rat thoracic aorta rings, endothelium-denuded, exposed to LPS
- Protocol notes: Inhibition of iNOS in situ in rat aortic rings (LPS-induced loss of tone, endothelium-denuded rings)
- Assay type: cell-based
- Experimental conditions: rat aortic rings, iNOS vs eNOS
Where a name gives a salt, the structure may show the parent alone.

Below are worked cases with known answers.
COCC(=N)NCCS(=O)(=O)CC(N)C(=O)O (stereo not shown) [Example 2, dihydrobromide dihydrate] ... >10-fold
Br.Br.N=C(CF)NCCS(=O)(=O)CC(N)C(=O)O (stereo not shown) [Example 1] ... >>200-fold
CC(=N)NCC[S+]([O-])CC(N)C(=O)O (stereo not shown) [Example 8] ... >100 fold

Query: State recorded Selectivity for iNOS with iNOS in rat aortic rings (Rattus norvegicus), entry CC(=N)NCCS(=O)(=O)CC(N)C(=O)O (stereo not shown) [Example 7] , no comment.
Result: 67-fold

###

For each of the compounds below, state its IC50.
- Test system: UniProtKB Q62600
- Protocol notes: Inhibition of eNOS in situ in rat aortic rings (basal tone, intact endothelium)
- Experimental conditions: rings with intact endothelium, basal tone; mean ±SEM (n); read-out: IC50 cNOS in rat sortic rings
Counter-ions that a name gives are not always drawn.

COCC(=N)NCCS(=O)(=O)CC(N)C(=O)O (stereo not shown) [Example 2, dihydrobromide dihydrate] ... > 300 µM
CC(=N)NCCS(=O)(=O)CC(N)C(=O)O (stereo not shown) [Example 7] ... 101 µM
Br.Br.N=C(CF)NCCS(=O)(=O)CC(N)C(=O)O (stereo not shown) [Example 1, dihydrobromide] ... > 300 µM

Query: Please indicate IC50 recorded for CC(=N)NCC[S+]([O-])CC(N)C(=O)O (stereo not shown) [Example 8]
Result: > 300 µM

###

For each of the molecules below, state its pIC50.
- Test system: human iNOS (Homo sapiens)
- Protocol notes: Inhibition of recombinant human iNOS (baculovirus/insect cell cytosol, spectrophotometric microtitre plate assay)
- Experimental conditions: 37° C., L-arginine 30 μM, steady-state 15-30 min; mean ±SEM (n)
Structures can show the parent of a compound that is named as a salt.
Numbers only, as −log10 of the molar value.

Below are worked cases with known answers.
Br.Br.N=C(CF)NCCS(=O)(=O)CC(N)C(=O)O (stereo not shown) [Example 1, dihydrobromide] ... 5.26
COCC(=N)NCCS(=O)(=O)CC(N)C(=O)O (stereo not shown) [Example 2, dihydrobromide dihydrate] ... 4.52
CSCC(=N)NCCS(=O)(=O)CC(N)C(=O)O (stereo not shown) ... 4.02

// next item, pIC50 requested
Query: Please indicate pIC50 recorded for CC(=N)NCCS(=O)(=O)CC(N)C(=O)O (stereo not shown)
Result: 4.85

###

- Test system: iNOS in rat aortic rings (Rattus norvegicus, UniProt Q06518)
- Construct: During this time a progressive loss of tone occurred because of iNOS induction
- Protocol notes: Inhibition of iNOS in situ in rat aortic rings (LPS-induced loss of tone, endothelium-denuded rings)
- Experimental conditions: endothelium-denuded rings, LPS 6 h; mean ±SEM (n); read-out: IC50 iNOS in rate sortic rings
Structures can show the parent of a compound that is named as a salt.
Measured metric: pIC50
Give bare numbers, as −log10 of the molar value.

COCC(=N)NCCS(=O)(=O)CC(N)C(=O)O (stereo not shown) [Example 2, dihydrobromide dihydrate] ... 4.48
CC(=N)NCCS(=O)(=O)CC(N)C(=O)O (stereo not shown) ... 5.82
CC(=N)NCC[S+]([O-])CC(N)C(=O)O (stereo not shown) ... 5.57

// next item, pIC50 requested
Query: Please indicate pIC50 recorded for Br.Br.N=C(CF)NCCS(=O)(=O)CC(N)C(=O)O (stereo not shown) [Example 1, dihydrobromide]
Result: 5.77

###

For each of the compounds below, state its IC50.
- Test system: human iNOS (Homo sapiens)
- Protocol notes: Inhibition of recombinant human iNOS (baculovirus/insect cell cytosol, spectrophotometric microtitre plate assay)
- Experimental conditions: 37° C., L-arginine 30 μM, steady-state 15-30 min; mean ±SEM (n)
Structures can show the parent of a compound that is named as a salt.

Hi, could you look up IC50 for each item in my list?
1. CC(=O)OCC(=N)NCCS(=O)(=O)CC(N)C(=O)O (stereo not drawn) [Example 3, dihydrobromide]
2. N=C(CO)NCCS(=O)(=O)CC(N)C(=O)O (stereo not drawn) [Example 6, hydrobromide]
3. N=C(COCc1ccccc1)NCCS(=O)(=O)CC(N)C(=O)O (stereo not drawn) [Example 4, hydrobromide]

Result:
> 300 µM
> 300 µM
> 300 µM
